Origin of the recorded values: patent US12319709B2

# Test system: RAW264.7 cells
# ASSAY PROTOCOL: Cytokine (TNFα) response of mouse macrophage cell line; Table 2 'Murine'
# Format: cell-based
# Design: unit not given here
# PROTOCOL CONDITIONS: NR = no response

SMILES	Maximum cytokine response Murine
CCCCOc1cc(OCCCC)cc(C(=O)OC[C@H]2O[C@H](O[C@H]3O[C@H](COC(=O)c4cc(OCCCC)cc(OCCCC)c4)[C@@H](O)[C@H](O)[C@H]3O)[C@H](O)[C@@H](O)[C@@H]2O)c1	1.3
Cc1ccccc1-c1cccc(C(=O)OC[C@H]2O[C@H](O[C@H]3O[C@H](COC(=O)c4cccc(-c5ccccc5C)c4)[C@@H](O)[C@H](O)[C@H]3O)[C@H](O)[C@@H](O)[C@@H]2O)c1	1.2
CCCCCCCCOc1cc(C(=O)OC[C@H]2O[C@H](O[C@H]3O[C@H](COC(=O)c4cc(OCCCCCCCC)c(OCCCCCCCC)c(OCCCCCCCC)c4)[C@@H](O)[C@H](O)[C@H]3O)[C@H](O)[C@@H](O)[C@@H]2O)cc(OCCCCCCCC)c1OCCCCCCCC	0.04
O=C(OC[C@H]1O[C@H](O[C@H]2O[C@H](COC(=O)c3ccccc3-c3ccccc3)[C@@H](O)[C@H](O)[C@H]2O)[C@H](O)[C@@H](O)[C@@H]1O)c1ccccc1-c1ccccc1	0.9
